# Assay Remarks: APR_HepG2_CellCycleArrest_24hr: Apredica 24-hour HepG2 Assay for Cell Cycle Arrest (AID 2282905);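 note: cell cycle arrest scored as ratio of 2N to 4N nuclear DNA content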
# Run Conditions: imaging, actives raise or lower the signal
The source made the active and inactive calls. Rule for the calls: active = hit-call score of the fitted dose curve at least 0.9, where 1 is the maximum; inactive = score below 0.9.
Outcome Measure: outcome

Observe how each entry below is paired with its result.
c1ccc2[nH]c(-c3cscn3)nc2c1; inactive
CCCN(CCC)c1c([N+](=O)[O-])cc(C(F)(F)F)c(N)c1[N+](=O)[O-]; inactive
C#C[C@]1(O)CC[C@H]2[C@@H]3CCC4=CC(=O)CC[C@@H]4[C@H]3CC[C@@]21CC; inactive
CC1(C)C(C=C(Cl)Cl)C1C(=O)OCc1cccc(Oc2ccccc2)c1 (stereo unspecified); inactive
O=C(c1ccc(O)cc1O)c1ccc(O)cc1O; inactive

The molecule listed as COC(=O)CSc1cc(N=c2sc(=O)n3n2CCCC3)c(F)cc1Cl shows outcome equal to inactive

Lab book: outcome of Oc1ccc(C(c2ccc(O)cc2)C(Cl)(Cl)Cl)cc1 noted as inactive

Summary for this molecule, CCSC(=O)N(CC(C)C)CC(C)C : outcome is inactive

Measured outcome of CCCCOC(=O)[C@@H](C)Oc1ccc(Oc2ccc(C(F)(F)F)cn2)cc1 : inactive

Looking up CCOC(=O)COc1cc(-n2ncc(C(F)(F)F)c(C)c2=O)c(F)cc1Cl , I see its outcome listed as inactive

Lab book: outcome of CCOC(=O)[C@H](C)Oc1ccc(Oc2nc3ccc(Cl)cc3o2)cc1 noted as inactive

----------
# Assay Remarks: CCTE_Shafer_MEA_acute_burst_percentage_mean: CCTE's Neural Acute Assay for Percentage of Spikes in a Burst, Shafer Lab (AID 2284017)
The source made the active and inactive calls. The calls were made as follows: active = hit-call score of the fitted dose curve at least 0.9, where 1 is the maximum; inactive = score below 0.9.
Pick one and only one: Yes = active, No = inactive

Use the examples below as a reference point.
Cc1nn(C)c(Oc2ccccc2)c1C=NOCc1ccc(C(=O)OC(C)(C)C)cc1; Yes
CC(C)CCCCCCc1ccc(O)cc1; Yes
COC(=O)c1ccccc1C(=O)O; No
C=CCOC(Cn1ccnc1)c1ccc(Cl)cc1Cl (stereo unspecified); Yes
CCCCC(CC)CN1C(=O)C2C3C=CC(C3)C2C1=O (stereo unspecified); Yes
CCCN(CCC)c1c([N+](=O)[O-])cc(C(F)(F)F)c(N)c1[N+](=O)[O-]; No
CC(C)(C)[C@@H](O)[C@@H](Cc1ccc(Cl)cc1)n1cncn1; No
O=C(c1ccc(O)cc1O)c1ccc(O)cc1O; No

Problem: // outcome(item) with item = O=C(Nc1ccc([N+](=O)[O-])cc1Cl)c1cc(Cl)ccc1O
Solution: Yes

Problem: Outcome? CCNc1nc(N)nc(Cl)n1
Solution: No

Problem: Returns: the outcome recorded for Oc1ccc(C(c2ccc(O)cc2)C(Cl)(Cl)Cl)cc1 in this assay.
Solution: Yes

----------
# Target Of Assay: Hepatocyte nuclear factor 3-beta (Homo sapiens) (UniProt Q9Y261)
# Sequence (Q9Y261 whole entry, looked up): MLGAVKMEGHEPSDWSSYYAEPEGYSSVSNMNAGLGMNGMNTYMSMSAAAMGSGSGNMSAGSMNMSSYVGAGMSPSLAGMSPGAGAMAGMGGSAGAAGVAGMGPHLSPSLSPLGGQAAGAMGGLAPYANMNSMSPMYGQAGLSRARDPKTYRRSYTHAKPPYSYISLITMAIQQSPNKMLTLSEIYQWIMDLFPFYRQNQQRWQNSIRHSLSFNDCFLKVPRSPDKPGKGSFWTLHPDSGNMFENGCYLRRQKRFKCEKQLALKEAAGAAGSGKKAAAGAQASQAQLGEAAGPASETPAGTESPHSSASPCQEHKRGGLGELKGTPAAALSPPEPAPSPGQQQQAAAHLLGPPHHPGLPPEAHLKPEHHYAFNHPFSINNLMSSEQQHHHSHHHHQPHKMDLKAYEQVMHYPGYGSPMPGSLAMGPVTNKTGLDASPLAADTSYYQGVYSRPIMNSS
# Assay Remarks: ATG_FoxA2_CIS: Attagene CIS-FACTORIAL HepG2 Assay for human Forkhead box A2 (FOXA2) (AID 2282942)
# Run Conditions: HepG2 cis-reporter transcription factor activity, 24 h; actives raise or lower the signal
Active and inactive are the calls of the source. How the source made its calls: active means hit-call score of the fitted dose curve at least 0.9, where 1 is the maximum; inactive means score below 0.9.
Outcome Measure: outcome

Before answering, review these 5 worked examples.
CCOC(=O)NCCOc1ccc(Oc2ccccc2)cc1; inactive
Oc1ccc(C(c2ccc(O)cc2)C(Cl)(Cl)Cl)cc1; inactive
COC(=O)c1c(Cl)nn(C)c1S(=O)(=O)NC(=O)Nc1nc(OC)cc(OC)n1; inactive
CCCCC(CC)CN1C(=O)C2C3C=CC(C3)C2C1=O (stereo not given); inactive
C#C[C@]1(O)CC[C@H]2[C@@H]3CCC4=CC(=O)CC[C@@H]4[C@H]3CC[C@@]21CC; inactive

Lab book: outcome of CCCN(CCC)C(=O)SCC noted as inactive

The reported value for COC(=O)c1ccccc1C(=O)O in terms of outcome is inactive

The molecule CCCCCOC(=O)COc1cc(N2C(=O)C3=C(CCCC3)C2=O)c(F)cc1Cl showed outcome equal to inactive

Per the records, this molecule ( CCOC(=O)C(C)Oc1ccc(Oc2nc3ccc(Cl)cc3o2)cc1 (stereo not given) ) has outcome equal to inactive

Noted for COC(=O)c1cccc(C)c1S(=O)(=O)NC(=O)Nc1nc(OCC(F)(F)F)nc(N(C)C)n1 : its outcome reads inactive

For CC(=O)[C@H]1CC[C@H]2[C@@H]3CCC4=CC(=O)CC[C@]4(C)[C@H]3CC[C@]12C the molecule record lists outcome as inactive

What the record says about C#CCOC(=O)[C@@H](C)Oc1ccc(Oc2ncc(Cl)cc2F)cc1 : outcome is inactive

Form field outcome, entry CCN(CC)C(=O)c1cccc(C)c1 : inactive

----------
# Assay Remarks: CEETOX_H295R_CORTISOL: CeeTox H295R High-throughput Steroidogenesis Assay for Cortisol (AID 2283438);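 note: cortisol secreted into medium quantified by LC-MS/MS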
# Run Conditions: actives raise or lower the signal
# Experimental: CEETOX_H295R is a cell-based, multiplexed-readout assay that uses H295R, a human adrenal gland cell line, with measurements taken at 48 hours after chemical dosing in a 96-well plate.CEETOX_H295R_CORTISOL is one of 23 assay component(s) measured or calculated from the CEETOX_H295R assay. […] This assay endpoint, CEETOX_H295R_CORTISOL, was analyzed with bidirectional fitting relative to DMSO as the negative control and baseline of activity. […]
Calls of active or inactive are those of the source. The calls were made as follows: active = hit-call score of the fitted dose curve at least 0.9, where 1 is the maximum; inactive = score below 0.9.
Outcome Measure: AC50

Example compounds with recorded AC50:
S=C([S-])NCCNC(=S)[S-].[Mn+2]; inactive
Oc1ccc(C(c2ccc(O)cc2)C(Cl)(Cl)Cl)cc1; 399 nM (active)
CC(C)(C)[C@@H](O)[C@@H](Cc1ccc(Cl)cc1)n1cncn1; 5000 nM (active)
CC1(C)C(C=C(Cl)Cl)C1C(=O)OCc1cccc(Oc2ccccc2)c1 (stereo unspecified); inactive
CCCCC(CC)CN1C(=O)C2C3C=CC(C3)C2C1=O (stereo unspecified); inactive

Please find the next compound below.
The compound CN(C)C(=O)Nc1ccc(Cl)c(Cl)c1 showed AC50 equal to inactive

----------
# Target Of Assay: Androgen Receptor/SRC-1 Co-activator, AR (gene 367) (UniProt P10275)
# Sequence (P10275 whole entry, looked up): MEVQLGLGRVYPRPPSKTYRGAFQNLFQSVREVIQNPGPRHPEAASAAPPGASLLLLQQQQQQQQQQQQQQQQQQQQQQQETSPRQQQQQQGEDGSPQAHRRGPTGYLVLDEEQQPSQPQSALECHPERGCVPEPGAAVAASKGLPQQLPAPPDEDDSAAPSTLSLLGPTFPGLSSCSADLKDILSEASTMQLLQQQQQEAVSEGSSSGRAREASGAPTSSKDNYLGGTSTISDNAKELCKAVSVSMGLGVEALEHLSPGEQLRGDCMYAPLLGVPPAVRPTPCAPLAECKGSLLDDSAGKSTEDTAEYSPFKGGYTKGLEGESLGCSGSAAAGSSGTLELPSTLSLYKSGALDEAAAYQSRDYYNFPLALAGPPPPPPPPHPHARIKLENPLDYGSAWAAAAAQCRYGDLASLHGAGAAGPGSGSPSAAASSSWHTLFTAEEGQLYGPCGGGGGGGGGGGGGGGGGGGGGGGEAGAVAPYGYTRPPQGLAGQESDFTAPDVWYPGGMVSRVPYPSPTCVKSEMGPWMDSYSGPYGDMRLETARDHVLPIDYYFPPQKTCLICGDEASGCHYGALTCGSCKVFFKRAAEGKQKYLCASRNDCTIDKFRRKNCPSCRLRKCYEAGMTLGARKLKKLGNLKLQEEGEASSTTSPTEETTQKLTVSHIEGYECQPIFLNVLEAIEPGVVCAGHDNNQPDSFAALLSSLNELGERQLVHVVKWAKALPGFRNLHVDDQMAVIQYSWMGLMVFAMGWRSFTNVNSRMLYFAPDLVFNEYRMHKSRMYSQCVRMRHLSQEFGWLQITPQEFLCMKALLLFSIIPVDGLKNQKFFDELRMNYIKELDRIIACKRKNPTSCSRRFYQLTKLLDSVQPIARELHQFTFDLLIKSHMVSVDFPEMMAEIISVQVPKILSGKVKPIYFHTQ
# Assay Remarks: OT_AR_ARSRC1_0480: Odyssey Thera (OT) 8-hour HEK293T Protein-Complementation Assay for Androgen Receptor/SRC-1 Co-activator (AID 2283354);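 note: hits raise the complementation signal above DMSO so AC50 marks enhancers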
Results filed as inconclusive are left out. The source made the active and inactive calls. The calls were made as follows: active = hit-call score of the fitted dose curve at least 0.9, where 1 is the maximum; inconclusive = response in the unintended direction; inactive = score below 0.9.
Could you please pick one outcome from this set? active, inactive

The examples below pair each entry with its known result.
CCCN(CCC)C(=O)SCC; inactive
CCCOC(=O)c1ccc(C(=O)OCCC)nc1; inactive
CCOC(=O)COc1cc(-n2ncc(C(F)(F)F)c(C)c2=O)c(F)cc1Cl; inactive

Problem: Which outcome was assigned to CC1(C)C(C=C(Cl)Cl)C1C(=O)OCc1cccc(Oc2ccccc2)c1 (stereo not drawn) in this test?
Solution: inactive

Problem: Please indicate how the test categorized CCOC(=O)C(C)Oc1ccc(Oc2nc3ccc(Cl)cc3o2)cc1 (stereo not drawn) .
Solution: inactive

Problem: Entry O=C(c1ccccc1)C1CCCCC1 : call = ?
Solution: inactive

Problem: For Cc1nn(C)c(Oc2ccccc2)c1C=NOCc1ccc(C(=O)OC(C)(C)C)cc1 , what call appears in the results of this test?
Solution: inactive

Problem: Could you kindly confirm the outcome this assay logged for COC(=O)CSc1cc(N=c2sc(=O)n3n2CCCC3)c(F)cc1Cl ?
Solution: inactive

Problem: Assay result, entry CCSC(=O)N(CC(C)C)CC(C)C — outcome?
Solution: inactive

Problem: Which outcome did this test record for the molecule c1ccc2[nH]c(-c3cscn3)nc2c1 ?
Solution: inactive

Problem: What is the recorded call for this molecule in the test? CSC(=O)c1cccc2nnsc12
Solution: active

Problem: Hey, what did the test say about CC(C)(c1ccc(O)cc1)c1ccc(O)cc1 ?
Solution: inactive

Problem: Which outcome was assigned to N#CSCSc1nc2ccccc2s1 in this test?
Solution: active

----------
# Assay Remarks: CCTE_Shafer_MEA_acute_cross_correlation_area: CCTE's Neural Acute Assay for Area of Cross Correlation, Shafer Lab (AID 2284024);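 note: area under pooled inter-electrode spike cross-correlation near zero lag as percent change from own baseline; curves fitted for loss of cross-correlation area so actives lower synchrony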
# Method: CCTE_Shafer_MEA_acute assay is conducted using Axion Biosystems 48 well microelectrode array (MEA) plates and Maestro recording system. Each well of the MEA plate contains a grid of 16 microelectrodes embedded in the culture surface. Electrically active cells, such as neurons, can be cultured over the electrodes, and electrical activity in these cells can be recorded extracellularly. […]
Activity calls are given as the source filed them. Rule for the calls: active = hit-call score of the fitted dose curve at least 0.9, where 1 is the maximum; inactive = score below 0.9.
Return exactly one item of True = active, False = inactive

Problem: Status in this test for CC(C)(C)[C@@H](O)[C@@H](Cc1ccc(Cl)cc1)n1cncn1 ?
Solution: False

Problem: Test call for this compound, please: Cc1nn(C)c(Oc2ccccc2)c1C=NOCc1ccc(C(=O)OC(C)(C)C)cc1
Solution: True

Problem: How did this test come out for O=C(Nc1ccc([N+](=O)[O-])cc1Cl)c1cc(Cl)ccc1O ?
Solution: True

Source of measurements: PubChem BioAssay (EPA / NIEHS)
